B1: Azoarcus group I ribozyme (parent)
chain: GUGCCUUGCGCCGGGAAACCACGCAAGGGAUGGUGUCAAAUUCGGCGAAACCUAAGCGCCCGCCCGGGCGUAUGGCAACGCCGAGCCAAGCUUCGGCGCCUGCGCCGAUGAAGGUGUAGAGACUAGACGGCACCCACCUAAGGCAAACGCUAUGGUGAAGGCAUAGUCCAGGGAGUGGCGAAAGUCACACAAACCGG

Variants of: B1
Protocol details: reverse-splicing fitness (ratio to wild type); higher = more active; in vitro selection; Mg2+ level not given
Decide by reverse-splicing fitness: equal to or exceeding 0.01 means 1.0, less means 0.0.

[
  {
    "Mutant name": "C82A A111C A120C A145C C150G U176G",
    "Label": 0.0
  },
  {
    "Mutant name": "C82U A111U A120U A145C C150G C169U U176C",
    "Label": 0.0
  },
  {
    "Mutant name": "C82A A111C A120U A145U C150A U176G",
    "Label": 0.0
  },
  {
    "Mutant name": "A111U A120C A145G C150G C169U U176C",
    "Label": 1.0
  },
  {
    "Mutant name": "C82G A111C A145U U176A",
    "Label": 1.0
  },
  {
    "Mutant name": "C82U A111G A145G C150U C169G U176A",
    "Label": 1.0
  },
  {
    "Mutant name": "A145C C150A U176G",
    "Label": 1.0
  },
  {
    "Mutant name": "A111C A120U C150A C169G",
    "Label": 0.0
  },
  {
    "Mutant name": "C82A A111U A120U A145C C150U C169G U176A",
    "Label": 0.0
  },
  {
    "Mutant name": "C82U C150U U176G",
    "Label": 1.0
  },
  {
    "Mutant name": "C82G A120C C150U C169G",
    "Label": 0.0
  },
  {
    "Mutant name": "C82A A111U A120C A145U C150A U176A",
    "Label": 1.0
  },
  {
    "Mutant name": "C82U A120C A145G C150A C169A U176C",
    "Label": 1.0
  },
  {
    "Mutant name": "C82U A111U A120G U176G",
    "Label": 0.0
  },
  {
    "Mutant name": "C82G A111U A145G C150G U176A",
    "Label": 1.0
  },
  {
    "Mutant name": "C82G A111C A120G A145G C150A C169A U176G",
    "Label": 0.0
  },
  {
    "Mutant name": "C82U C150G C169G",
    "Label": 0.0
  },
  {
    "Mutant name": "A111U A120C A145C C150A C169G U176A",
    "Label": 1.0
  },
  {
    "Mutant name": "C82G A111C A120U A145U C150U",
    "Label": 1.0
  },
  {
    "Mutant name": "C82U A120C A145U C150A C169G U176A",
    "Label": 0.0
  },
  {
    "Mutant name": "A111C A120G A145G C150U C169G U176G",
    "Label": 0.0
  },
  {
    "Mutant name": "C82G A111G A120U A145G C150A C169U U176A",
    "Label": 0.0
  },
  {
    "Mutant name": "C82A A111U A120U A145G C150U C169G",
    "Label": 0.0
  },
  {
    "Mutant name": "C82U A111G A120U A145U C150G C169U U176C",
    "Label": 0.0
  },
  {
    "Mutant name": "A111G A120U A145G C150U C169G U176A",
    "Label": 1.0
  },
  {
    "Mutant name": "C82A A111U A120U C169U U176C",
    "Label": 0.0
  },
  {
    "Mutant name": "C82U A145C C150G C169U U176A",
    "Label": 0.0
  },
  {
    "Mutant name": "A111C A120U A145G C150A U176G",
    "Label": 1.0
  },
  {
    "Mutant name": "C82U A111G A145G C150A C169U U176C",
    "Label": 1.0
  },
  {
    "Mutant name": "C82G A111U A120C A145G C150G C169A U176G",
    "Label": 1.0
  },
  {
    "Mutant name": "A145U C150G C169G U176C",
    "Label": 0.0
  },
  {
    "Mutant name": "C82A A111G A120G A145U C150U C169U U176C",
    "Label": 1.0
  },
  {
    "Mutant name": "C82G A111C A120U A145G C150A C169U U176G",
    "Label": 0.0
  },
  {
    "Mutant name": "C82U A111C A120C C150A U176G",
    "Label": 0.0
  },
  {
    "Mutant name": "C82A A145C C150U C169G U176C",
    "Label": 1.0
  },
  {
    "Mutant name": "C82A A111G A120G A145U C150G",
    "Label": 0.0
  },
  {
    "Mutant name": "C82U A111C A120U A145G C150U C169U",
    "Label": 0.0
  },
  {
    "Mutant name": "C82A A120G A145G U176A",
    "Label": 1.0
  },
  {
    "Mutant name": "C82U A111G A120G C150A C169G U176C",
    "Label": 1.0
  },
  {
    "Mutant name": "C82U A111G A120U A145U C150A C169G U176A",
    "Label": 0.0
  },
  {
    "Mutant name": "A120G A145C C169A U176C",
    "Label": 1.0
  },
  {
    "Mutant name": "C82G A111G A120C C150G U176C",
    "Label": 1.0
  },
  {
    "Mutant name": "A145G C150U C169U U176C",
    "Label": 1.0
  },
  {
    "Mutant name": "C82A A111U A145G U176A",
    "Label": 1.0
  },
  {
    "Mutant name": "A111U A120G C169G U176A",
    "Label": 1.0
  }
]
